Provenance of the data: patent US20260258115A1

biological target: RSV postfusion F (postF), F ΔFP (Respiratory Syncytial Virus, UniProt P03420 26-513); experiment: BLI, IgG on anti-human IgG sensor
measurement_label: binding result

{"binder": "ADI-41524 (antibody, V domains shown) VH: EVQLVESGGGLVQPGRSLRLSCTGSGFTFGDYAISWFRQAPGKGLEWVGFIRSKPYGGTTEYAASVKGTFTISRDDSKSIAYLQMNSLKTGDTAVYFCTRGIWGITMIVPWSDPWGQGTLVTVSS VL: DIVMTQTPLSLPVTPGEPASISCRSSQSLLHSNGFNYLAWYLQKPGQSPQLLIYLNSNRASGVPDRFSGSGSGTDFTLKISRVEAEDVGVYYCMQALQTPLTFGPGTKLEIK", "measurement_label": "binding result", "result": "no binding"}
{"binder": "ADI-41521 (antibody, V domains shown) VH: EVQLVESGGGLVQPGRSLRLSCAASGFTFDDFAMDWVRQVPGKGLEWVSGISWNGVSKDYAGSVKGRFTISRDNAKNSLYLQMNSLRAEDTALYFCAKARRDVYNWGDAFDIWGQGTMVTVSS VL: DIRLTQSPGTLSLSPGERATLSCRASQPLNSNYLAWYRQKPGQAPRLLIFDASSRATGVPDRISGSGSGTDFTLTVSRLEPEDIAVYYCQQYASSPWTFGLGTKVEIK", "measurement_label": "binding result", "result": "no binding"}
{"binder": "ADI-41517 (antibody, V domains shown) VH: QVQLVQSGGGLVQPGGSLRLACAASGFTLSGYAMNWVRQAPGKGLEWVSSISGSGGSTYYADSVKGRFTTSRDNSKNTVFLHMNSLRAEDTAIYYCATVPWETGPFDHWGQGTLVTVSS VL: QSVLTQPPSVSGAPGQRVTISCTGSSSNIGAGYAVHWYQQLPGTAPKLLIHGTTNRPSGVPDRFSGSKSGTSASLAITGLQAEDEADYYCQSYDSRLSGYVFGTGTKLTVL", "measurement_label": "binding result", "result": "no binding"}
